System: UACC-62 melanoma
Test: NCI-60 one-dose screen, 48 h
Conditions: 10 µM unless noted
About 83,000 compounds went through this panel and 20% of them were active in at least one assay; those are over-represented in the sample as a whole. Active and inactive are the calls of the source. The calls were made as follows: active = growth percent below 10; inactive = the rest.
I would appreciate it if you answered using one of these outcomes: YES for active, NO for inactive

Please review the following examples before continuing.
COc1cccc(-c2nn(-c3ccccc3)cc2-c2ccnc(NCCCNC(=O)c3ccc(F)cc3)c2)c1
NO
c1cc2ccc3cc2cc1CNCCOCCNCc1ccc2ccc(cc2c1)CNCCOCCNC3
YES
CN(Cc1cnc2nc(N)nc(N)c2n1)c1ccc(C(=O)N[C@@H](CCc2nn[nH]n2)c2nn[nH]n2)cc1
NO
COc1cc(-c2nc(N3CCN(C)CC3)c3ccccc3n2)cc(OC)c1OC
NO
O=C1Nc2ccc(F)cc2C12Nc1cc(Cl)ccc1S2 (stereo not given)
NO

// query Hello, I am checking results. What call was entered for "O=C1/C(=C\c2cccnc2)SC(=S)N1CCc1ccc(O)cc1" ?
// result NO

// query Hello, I am checking results. What call was entered for "CCN(CC)CCN1C(=O)c2c(c(C)c3c(oc4cc(O)ccc43)c2C)C1=O" ?
// result NO

// query Hello, I am checking results. What call was entered for "Cc1ccc2c(c1)Sc1c(ccc3ccccc13)N2" ?
// result NO

// query Hello, I am checking results. What call was entered for "CCN(CC)S(=O)(=O)c1cccc(-c2ccc3c(NC(=O)C4CC4)n[nH]c3c2)c1" ?
// result NO

// query Hello, I am checking results. What call was entered for CC1(C)CC(=O)C2=C(C1)N(c1ccc(OC(F)(F)F)cc1)C(N)=C(C#N)C2c1ccc(Cl)cc1 (stereo not given) ?
// result NO

====

Test system: COLO 205 colon
Experiment: NCI-60 one-dose screen, 48 h
Settings: 10 µM unless noted
The panel holds about 83,000 compounds, 20% with a hit somewhere; the sample as a whole holds those more often. Active and inactive are the calls of the source. Rule for the calls: active = growth percent below 10; inactive = the rest.
I would appreciate it if you answered using one of these outcomes: y for active, n for inactive

Please review the following examples before continuing.
CC(C)(C)CC(C)(C)Nc1c(-c2ccncc2)nc2cnccn12
n
COc1cc(/C=C/C(=O)c2cccc(-n3cc(-c4ccccc4)[nH]c3=O)c2)ccc1O
n
CCCCCCCCCCCC(c1ccccc1)[N+](C)(C)C (stereo not given)
y
CCOC(=O)C/C(C)=N\NC(=O)c1ccncc1
n
N=C1C(c2nc(-c3ccc(Br)cc3)cs2)=C(O)CN1CC1CCCO1 (stereo not given)
n
N=c1sc(Cc2ccc(Cl)cc2)cn1CC(=O)c1ccc(F)cc1
n
Cc1c(C)c2c(c(C)c1OCC(=O)O)CC[C@@](C)(CCC[C@@H](C)CCC[C@@H](C)CCCC(C)C)O2
y
c1cc2ccc3cc2cc1CNCCOCCNCc1ccc2ccc(cc2c1)CNCCOCCNC3
y

// query Hello, I am checking results. What call was entered for "COc1ccc(C(=O)/C=C/c2c(C(F)(F)F)nc3sccn23)cc1OC" ?
// result n

// query Hello, I am checking results. What call was entered for "O=C1NC(=Nc2ccc(Cl)cc2)S/C1=C\c1cn(-c2ccccc2)nc1-c1ccccc1" ?
// result n

====

Test system: HOP-92 NSCLC
Experiment: NCI-60 one-dose screen, 48 h (100 = growth as untreated, 0 = no growth, -100 = all killed)
Details: 10 µM unless noted
About 83,000 compounds went through this panel and 20% of them were active in at least one assay; those are over-represented in the sample as a whole.
VALUE_KIND: growth (%)
The figure you give is taken to be in %; do not add the unit.

Consider the worked cases shown below.
O=C(NC(Cc1nnc2n(Cc3ccccc3)c(=O)c3c4c(sc3n12)CCCC4)c1ccc(Cl)cc1)c1ccccc1 (stereo not given)
76.8
O=C(NCCCNc1cc(-c2cn(-c3ccccc3)nc2-c2cccc(O)c2)ccn1)c1cccc(O)c1
57.2
Cc1cccc(Cc2cnc(NC(=O)c3ccc4nnsc4c3)s2)c1
74.7
O=C1/C(=C\c2c[nH]c3ccccc23)c2ccccc2N1c1c(Cl)cccc1Cl
-13.7
CCCCCCCCCCCC(c1ccccc1)[N+](C)(C)C (stereo not given)
-16.5

Now let's try a different one.
# growth (compound: "C[n+]1cc2c3c(ccc2c2ccc4cc5c(cc4c21)OCO5)OCO3" ) is -80.6

Numbers sourced from PubChem BioAssay (NCI).
